biological target: human MCH receptor 1 (MCHR1) (Homo sapiens, UniProt Q99705); construct: expressed in transfected cells; host or cells: CHO cell clone 57 (membrane fraction); experiment: human MCH receptor 1 (MCHR1) competitive binding assay with [125I]-MCH(4-19); conditions: test compound 0.1 μM, human MCHR1-expressing CHO cell membrane fraction, read-out: Binding inhibition rate % (0.1 μM)
Sequence (Q99705 whole entry): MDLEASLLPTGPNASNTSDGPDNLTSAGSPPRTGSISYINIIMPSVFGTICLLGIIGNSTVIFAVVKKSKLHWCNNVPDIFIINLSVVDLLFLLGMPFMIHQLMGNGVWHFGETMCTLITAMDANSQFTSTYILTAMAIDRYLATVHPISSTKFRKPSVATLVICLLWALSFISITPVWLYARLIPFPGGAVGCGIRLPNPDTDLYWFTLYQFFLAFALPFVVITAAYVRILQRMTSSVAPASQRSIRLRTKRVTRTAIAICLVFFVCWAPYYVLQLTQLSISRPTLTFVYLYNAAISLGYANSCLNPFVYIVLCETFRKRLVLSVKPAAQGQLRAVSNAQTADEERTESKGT
value.kind: inhibition at 0.1 µM (%)
Number only, in %; omit the unit.

Example results:
compound: Cn1c([C@@H]2C[C@@H]2C(C)(C)O)nc2ccc(-n3ccc(OCc4ccccc4)cc3=O)cc21 (racemic)
endpoint.value: 75
--
compound: CCc1nc2ccc(-n3ccc(OCc4ccsc4)cc3=O)cc2n1C
endpoint.value: 69
--
compound: Cc1c(C2CC2)nc2ccc(-n3ncc(OCc4ccc(Cl)cc4)cc3=O)cn12
endpoint.value: 53

Please look at the following compound next.
Exam item: Entry under review: `Cn1c(C2CC2)nc2ccc(-n3ccc(OCc4nc(C(F)F)cs4)cc3=O)cc21` . Reported inhibition at 0.1 µM?
Marked response: 56
